For each record, write down the corresponding GI50.
# Tested on: HCT 116 Cells
# assayText: Aurora kinase whole cell cytotoxicity assay: Sulforhodamine B
# Assay type: cell-based
# conditionDetails: Homo sapiens, HCT116, SRB staining, 96 hours incubation

For each listed entry, give its GI50.
1. Cc1cc(Nc2nc(Sc3ccc(NC(=O)C4CC4)cc3)nc(C(=O)OCc3ccccc3)c2N)n[nH]1
2. Cc1cc(Nc2nc(Sc3ccc(NC(=O)C4CC4)cc3)nc(C(=O)OCCO)c2N)n[nH]1
3. Cc1cc(Nc2nc(Sc3ccc(NC(=O)C4CC4)cc3)nc(C(=O)N3CCSCC3)c2N)n[nH]1

(A)
1: 100 to 1000 nM; 2: 1000 to 10000 nM; 3: 1000 to 10000 nM

Taken from patent US8153630B2.
